assay: Membrane permeability test of cyclic peptides (Caco-2, modified/improved method of WO 2018/124162); settings: human, Caco-2, Caco-2 (cm/sec), membrane permeability of cyclic peptides, Caco-2
*1 amine or outer side, *2 acyl side, *3 side chain or, on linkers, in order; H or OH if unused. Where a SMILES comes first, the peptide text is derived from it. Bridges are numbered along the chain shown (N, C = ends). [ ]: non-standard residue; d: D form. The star is where a group is joined. ξ: configuration not given here. NMeHph(3-OMe-4-CONHMe) = CNC(=O)c1ccc(CC[C@H](NC)C(=O)O)cc1OC; CH2(1,2,4-oxadiazolon-3-yl) = O=c1[nH]c(C*)no1; NMePhe(3-Cl) = CN[C@@H](Cc1cccc(Cl)c1)C(=O)O; Hyp = O=C(O)[C@@H]1C[C@@H](O)CN1; NMeF = CN[C@@H](Cc1ccccc1)C(=O)O; NMeGABA = CN(CCCC(=O)[*:2])[*:1]; NMeL = CN[C@@H](CC(C)C)C(=O)O; dNMeL = CN[C@H](CC(C)C)C(=O)O; Butyl(3R-OH) = C[C@@H](O)CC*; NMeV = CN[C@H](C(=O)O)C(C)C; Pip = O=C(O)[C@@H]1CCCCN1; Piperidide = C1CCN(*)CC1; NBuGly = CCCCNCC(=O)O; Ethyl(2-OH) = OCC*; ξS = NC(CO)C(=O)O; Sar = CNCC(=O)O
Measure Name: Papp (×10⁻⁶ cm/s)

{"columns": ["Compound", "Measure Name", "Measurement Units", "Assay Result"],
 "data": [
  ["CC(C)C[C@@H]1NC(=O)[C@@H]2CCCCN2C(=O)[C@H](Cc2ccccc2)NC(=O)[C@H](C(C)C)N(C)C(=O)[C@H](CC(C)C)N(C)C(=O)[C@H]([C@@H](C)O)NC(=O)[C@H](CC(C)C)N(C)C(=O)[C@@H]2C[C@@H](OCCO)CN2C(=O)[C@H](CC(C)C)N(C)C(=O)[C@@H](CC(C)C)N(C)C(=O)C[C@@H](C(=O)N2CCCCC2)NC1=O [AP236] ([dNMeL][NMeL][Hyp](Ethyl(2-OH))[NMeL]T[NMeL][NMeV]F[Pip]LD-Piperidide; lactam N-11)", "Papp", "×10⁻⁶ cm/s", 3.8],
  ["CC[C@H](C)[C@@H]1NC(=O)[C@H](CC(C)C)N(C)C(=O)CCCN(C)C(=O)C[C@@H](C(=O)N2CCCCC2)NC(=O)[C@H](CC(C)C)N(C)C(=O)[C@H](CC(C)C)N(C)C(=O)[C@H]([C@@H](C)O)NC(=O)[C@H](CC(C)C)N(C)C(=O)C(COCc2noc(=O)[nH]2)NC(=O)[C@H](CC(C)C)N(C)C(=O)[C@H](Cc2cccc(Cl)c2)N(C)C1=O (stereo partly drawn) [AP46] ([NMeGABA][NMeL]I[NMePhe(3-Cl)][NMeL][ξS](CH2(1,2,4-oxadiazolon-3-yl))[NMeL]T[NMeL][NMeL]D-Piperidide; lactam N-11)", "Papp", "×10⁻⁶ cm/s", 0.22],
  ["CNC(=O)c1ccc(CC[C@H]2C(=O)N[C@@H]([C@@H](C)O)C(=O)N(C)CC(=O)N(C)[C@@H](CC(C)C)C(=O)N[C@@H](CC(C)C)C(=O)N(C)[C@@H](Cc3ccccc3)C(=O)N(C)[C@@H](CC(C)C)C(=O)N[C@H](C(=O)N3CCCCC3)CC(=O)N[C@H](C(C)C)C(=O)N(C)[C@@H](CC(C)C)C(=O)N[C@@H](C(C)C)C(=O)N2C)cc1OC [AP226] ([dV][NMeL]V[NMeHph(3-OMe-4-CONHMe)]T[Sar][NMeL]L[NMeF][NMeL]D-Piperidide; lactam N-11)", "Papp", "×10⁻⁶ cm/s", 0.57],
  ["CCCCN1CC(=O)N(C)[C@@H](CC(C)C)C(=O)N[C@H](C(=O)N2CCCCC2)CC(=O)N(C)[C@@H](C(C)C)C(=O)N[C@@H](CC(C)C)C(=O)N(C)[C@@H](CC(C)C)C(=O)N(C)[C@@H](Cc2ccccc2)C(=O)N[C@@H](COCC[C@@H](C)O)C(=O)N(C)[C@@H](Cc2ccccc2)C(=O)N(C)[C@@H](C(C)C)C(=O)N[C@@H]([C@@H](C)O)C1=O [AP116] ([NMeV]L[NMeL][NMeF]S(Butyl(3R-OH))[NMeF][NMeV]T[NBuGly][NMeL]D-Piperidide; lactam N-11)", "Papp", "×10⁻⁶ cm/s", 0.89]
]}
